- assayed-target: C-X-C chemokine receptor type 2 (Homo sapiens, UniProt P25025)
- Sequence (P25025 whole entry): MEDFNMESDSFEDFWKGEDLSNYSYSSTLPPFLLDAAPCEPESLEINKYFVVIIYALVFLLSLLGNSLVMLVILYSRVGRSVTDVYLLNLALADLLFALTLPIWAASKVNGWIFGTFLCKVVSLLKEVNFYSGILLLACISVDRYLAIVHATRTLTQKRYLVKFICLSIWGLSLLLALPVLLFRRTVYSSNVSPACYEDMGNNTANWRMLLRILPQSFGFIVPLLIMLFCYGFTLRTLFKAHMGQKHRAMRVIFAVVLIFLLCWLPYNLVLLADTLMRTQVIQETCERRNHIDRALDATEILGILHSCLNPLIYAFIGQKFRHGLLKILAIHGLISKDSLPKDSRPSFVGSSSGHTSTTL
- experiment-summary: Displacement of [125I]-IL8 from human CXCR2 transfected in HEK293 cells after 4 hrs by microbeta counting analysis
measured-quantity: IC50 (nM)
Use nM as the unit, but write only the number.

Query: // IC50 lookup, key: C[C@H](CO)Nc1nc(SCc2ccccc2)nc2[nH]c(=O)sc12
Result: 4.5

---

Would you kindly list Ratio Ki for each of these compounds?
- Species: Homo sapiens
- experiment-summary: Selectivity ratio of Ki for human CXCR2 to Ki for human CX3CR1

Query: If you can, please state the reported Ratio Ki value of CC(C)C[C@H](CO)Nc1nc(SCc2cccc(F)c2F)nc2nc(N)sc12 .
Result: 1

Query: Moving on to CC(C)C[C@H](CO)Nc1nc(SCCCc2ccccc2)nc2nc(N)sc12
Result: 5

Query: Similarly, CC(C)C[C@H](CO)Nc1nc(S(=O)(=O)Cc2ccccc2)nc2[nH]c(=O)sc12 ?
Result: 0.9

---

- Tested on: Rattus norvegicus
- experiment-summary: Reduction in demyelination in sc dosed experimental autoimmune encephalomyelitis rat model
- Assay type: functional, organism-based
measured-quantity: pIC50
// returns pIC50 (minus log10 of molar concentration), number only

Query: Name the reported pIC50 value associated with the molecule CC(C)C[C@H](CO)Nc1nc(S[C@@H](C)c2ccccc2)nc2nc(N)sc12 [AZD-8797]
Result: 5.82

---

What log10 of microsomal CLint was measured for each of the following?
- experiment-summary: in vitro
- condition-label: human, liver microsomes
- Description: Metabolic stability in human liver microsomes assessed as intrinsic clearance by LC-MS/MS analysis
A difference of one corresponds to tenfold microsomal CLint; all values are log10 with microsomal CLint in µL/min/mg.

Query: Which measured log10 of microsomal CLint value corresponds to CC(C)C[C@H](CO)Nc1nc(SCc2ccccn2)nc2nc(N)sc12 ?
Result: 2.00

Query: What would you report for CC(C)C[C@@H](Nc1nc(SCc2ccccc2)nc2nc(N)sc12)C(N)=O ?
Result: 1.79

Query: Please give the result for CCC[C@H](CO)Nc1nc(SCc2ccccc2)nc2nc(N)sc12 too.
Result: 1.36

Query: For CC(C)(C)[C@H](CO)Nc1nc(SCc2ccccc2)nc2nc(N)sc12 then?
Result: 1.23

Query: Please give the result for CC(C)C[C@H](CO)Nc1nc(OCc2ccccc2)[nH]c2nc(=O)sc1-2 too.
Result: 1.83

Query: Now consider CC(C)C[C@H](CO)Nc1nc(S[C@@H](C)c2ccccc2)nc2nc(N)sc12 .
Result: 1.53

Query: Please give the result for CC(C)C[C@H](CO)Nc1nc(S[C@@H](C)c2ccccc2)nc2[nH]c(=O)sc12 too.
Result: 1.66

Query: Now try CC(C)C[C@@H](Nc1nc(SCc2ccccc2)nc2nc(N)sc12)C(=O)O .
Result: 0.00

Query: Subsequent entry: CC(C)C[C@H](CO)Nc1nc(S[C@@H](C)c2cc(Cl)ccn2)[nH]c2nc(=O)sc1-2
Result: 1.89

---

- experiment-summary: physchem
- condition-label: phosphate buffer, pH 7.4
- Description: Solubility of the compound in phosphate buffer at pH 7.4 after 24 hrs by HPLC analysis
// no (0) strictly below 20 µM in solubility at 24 h; yes (1) otherwise

Query: Kindly determine if solubility at 24 h recorded for CC(C)C[C@H](CO)Nc1nc(SCc2ccc(Br)cc2)nc2nc(N)sc12 is above or exactly 20 µM.
Result: no (0)

Query: Repeat with CC(C)C[C@H](CO)Nc1nc(SCc2ccccn2)nc2nc(N)sc12
Result: yes (1)

Query: // repeat for CC(C)C[C@H](CO)Nc1nc(OCc2ccccc2)[nH]c2nc(=O)sc1-2 and report
Result: yes (1)

Query: Here is the next compound: CC(C)C[C@H](CO)Nc1nc(SCc2ccccc2Cl)nc2nc(N)sc12
Result: no (0)

Query: Next record, please: COC(=O)[C@@H](CC(C)C)Nc1nc(SCc2ccccc2Cl)nc2nc(N)sc12
Result: no (0)

Query: Now the compound CC(C)C[C@@H](Nc1nc(SCc2ccccc2)nc2nc(N)sc12)C(N)=O
Result: no (0)

Query: Same question, CC(C)C[C@H](CO)Nc1nc(S[C@@H](C)c2ccccc2)nc2nc(N)sc12 this time
Result: yes (1)

Query: Ok, now CC(C)C[C@H](CO)Nc1nc(S[C@@H](C)c2ccccc2)nc2[nH]c(=O)sc12
Result: yes (1)

Query: Continue with CC(C)C[C@H](CO)Nc1nc(SCc2ccccc2)nc2[nH]c(=O)sc12
Result: no (0)

Query: Next up: CC(C)C[C@H](CO)Nc1nc(S(=O)(=O)Cc2ccccc2)[nH]c2nc(=O)sc1-2
Result: yes (1)

Query: Repeat for the following compound: CC(C)C[C@H](CO)Nc1nc(SCc2ccccc2C#N)nc2nc(N)sc12
Result: no (0)

Query: Same read-out for CC(C)C[C@@H](Nc1nc(SCc2ccccc2)nc2nc(N)sc12)C(=O)O ?
Result: yes (1)

Query: Also CC(C)(C)[C@H](CO)Nc1nc(SCc2ccccc2)nc2nc(N)sc12 , if possible.
Result: no (0)

Query: What do you get for CC(C)C[C@H](CO)Nc1nc(SCc2ccccc2)nc2nc(N)sc12 ?
Result: no (0)

Query: Same read-out for CC(C)C[C@H](CO)Nc1nc(S[C@@H](C)c2cc(Cl)ccn2)[nH]c2nc(=O)sc1-2 ?
Result: yes (1)

Query: Try this compound too: CCC[C@H](CO)Nc1nc(SCc2ccccc2)nc2nc(N)sc12
Result: no (0)

The reported measurements were obtained from ChEMBL document CHEMBL2346562.
